tested-target: Tyk2 (Homo sapiens)
Construct: purchased Invitrogen
Sequence (P29597 whole entry): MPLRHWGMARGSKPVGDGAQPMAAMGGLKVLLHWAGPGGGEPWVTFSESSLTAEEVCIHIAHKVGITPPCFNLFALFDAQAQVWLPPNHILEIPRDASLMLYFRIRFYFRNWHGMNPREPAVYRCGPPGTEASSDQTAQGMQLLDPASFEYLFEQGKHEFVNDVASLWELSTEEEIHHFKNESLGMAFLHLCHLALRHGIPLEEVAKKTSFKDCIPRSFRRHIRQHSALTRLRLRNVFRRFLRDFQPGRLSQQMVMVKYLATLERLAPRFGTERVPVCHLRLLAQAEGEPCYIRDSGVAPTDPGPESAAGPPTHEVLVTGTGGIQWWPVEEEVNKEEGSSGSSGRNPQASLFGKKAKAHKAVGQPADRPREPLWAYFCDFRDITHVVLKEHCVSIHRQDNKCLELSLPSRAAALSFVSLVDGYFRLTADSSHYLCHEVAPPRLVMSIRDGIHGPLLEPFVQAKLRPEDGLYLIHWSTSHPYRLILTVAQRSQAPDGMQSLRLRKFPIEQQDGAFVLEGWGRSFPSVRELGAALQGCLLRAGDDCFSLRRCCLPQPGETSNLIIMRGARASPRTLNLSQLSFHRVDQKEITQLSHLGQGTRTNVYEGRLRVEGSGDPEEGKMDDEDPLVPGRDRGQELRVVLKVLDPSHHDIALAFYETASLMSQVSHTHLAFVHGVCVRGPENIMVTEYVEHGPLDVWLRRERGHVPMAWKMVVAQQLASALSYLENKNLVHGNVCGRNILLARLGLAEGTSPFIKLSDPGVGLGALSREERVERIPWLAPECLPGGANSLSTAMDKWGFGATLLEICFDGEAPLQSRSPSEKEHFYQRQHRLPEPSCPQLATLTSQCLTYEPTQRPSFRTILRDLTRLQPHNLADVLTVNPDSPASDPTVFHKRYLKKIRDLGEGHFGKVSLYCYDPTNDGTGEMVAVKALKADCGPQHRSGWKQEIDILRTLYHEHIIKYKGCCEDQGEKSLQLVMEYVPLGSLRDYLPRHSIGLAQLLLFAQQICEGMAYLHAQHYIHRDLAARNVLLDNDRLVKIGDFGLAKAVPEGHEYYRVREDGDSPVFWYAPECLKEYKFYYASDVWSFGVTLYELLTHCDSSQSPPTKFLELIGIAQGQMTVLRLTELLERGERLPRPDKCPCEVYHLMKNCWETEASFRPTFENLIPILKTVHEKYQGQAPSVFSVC
procedure-text: Tyk2 enzyme inhibition test (LANCE method)
Type: biochemical
condition: test compound 1 μM; read-out: Inhibitory rate (%) Tyk2 1 μM
outcome-measure: inhibition at 1 µM (%)

| compound | inhibition at 1 µM (%) |
| --- | --- |
| Cn1cnc2cc(-c3nn(-c4c(F)cccc4F)c4c(Cl)c[nH]c(=O)c34)ccc21 | 98 |
| CNC(=O)c1cc(F)cc(-c2nn(-c3c(F)cccc3F)c3cc[nH]c(=O)c23)c1 | 77 |
| CCNC(=O)n1cc(-c2nn(-c3c(F)cccc3F)c3c(Cl)c[nH]c(=O)c23)cn1 | 98 |
| CC1(Cn2nc(-c3ccc(S(N)(=O)=O)cc3)c3c(=O)[nH]ccc32)COC1 | 77 |
| Cn1cc(NC(=O)c2cc(-c3nn(-c4c(F)cccc4F)c4c(Cl)c[nH]c(=O)c34)cs2)cn1 | 100 |
| COC(=O)c1cc(-c2cn(C3CCCC3)c3c(C#N)c[nH]c(=O)c23)cs1 | 99 |
| CC(=O)Nc1ccc(-c2nn(-c3c(F)cccc3F)c3cc[nH]c(=O)c23)cc1 | 99 |
| CC(C)(C#N)c1ccc(-c2cn(C3CCCC3)c3c(C#N)c[nH]c(=O)c23)cc1 | 98 |
| NC(=O)c1ccc(-c2nn(-c3c(F)cccc3F)c3c(Cl)c[nH]c(=O)c23)cc1F | 94 |
| NC(=O)Cc1ccc(-c2nn(-c3c(F)cccc3F)c3cc[nH]c(=O)c23)cc1 | 99 |
| NC(=O)Cc1cccc(-c2nn(-c3c(F)cccc3F)c3c(Br)c[nH]c(=O)c23)c1 | 99 |
| O=c1[nH]ccc2c1c(-c1cn[nH]c1)nn2C1CCCC1 | 98 |
| NC(=O)c1cc(-n2nc(C3CCCC3)c3c(Br)c[nH]c(=O)c32)cs1 | 91 |
| Cc1ccccc1-c1nn(-c2csc(C(N)=O)c2)c2c(=O)[nH]cc(Br)c12 | 97 |
| O=c1[nH]ccc2c1c(-c1ccc(N3CCOCC3)nc1)nn2-c1c(F)cccc1F | 99 |
| NS(=O)(=O)c1ccc(-c2cn([C@H]3CC[C@@H](O)CC3)c3cc[nH]c(=O)c23)cc1 | 95 |
| O=c1[nH]ccc2c1c(-c1csc(N3CCOCC3)c1)nn2-c1c(F)cccc1F | 99 |
| O=C1Cc2ccc(-c3nn(-c4c(F)cccc4F)c4c(Cl)c[nH]c(=O)c34)cc2N1 | 97 |
| NC(=O)Cc1ccc(-c2nn(-c3c(F)cccc3F)c3c(Br)c[nH]c(=O)c23)cc1 | 98 |
| CC1(O)CCC(n2nc(-c3ccc(S(N)(=O)=O)cc3)c3c(=O)[nH]ccc32)CC1 (centres unmarked) | 100 |
| Cc1ccccc1-c1nn(-c2csc(C(N)=O)c2)c2c(=O)[nH]cc(C#N)c12 | 88 |
| N#Cc1c[nH]c(=O)c2c(-c3cccc(C(N)=O)c3)cn(C3CCCC3)c12 | 94 |
| N#CC1(NC(=O)c2cc(-c3nn(-c4c(F)cccc4F)c4c(Cl)c[nH]c(=O)c34)cs2)CC1 | 100 |
| O=c1[nH]ccc2c1c(-c1ccc(C3CCOCC3)cc1)nn2-c1c(F)cccc1F | 98 |
| NS(=O)(=O)c1ccc(-c2nn(C3CCCC3)c3cc[nH]c(=O)c23)cc1 | 99 |
| NS(=O)(=O)c1ccc(-c2nn(C3CCC(O)(c4ccccc4)CC3)c3cc[nH]c(=O)c23)cc1 (centres unmarked) | 98 |
